# protocol-summary: compound fluorescence in GFP channel, mTEFS cells – imaging, mTEFS fibroblasts, cherry-pick, artefact control for X-chromosome reactivation project, dose response (AID 743396);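 on % fluorescent cells increase: raw share of Hoechst-counted cells scored GFP positive without control normalization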
# test-settings: mTEFS fibroblasts autofluorescence, GFP-channel imaging, 3 days; at 19.5 µM (top of the series); cells pretreated with 5-aza-dC
For each of the compounds below, state its % fluorescent cells increase.
The reply should be a number in %, with the unit left off.

Q: Tell me % fluorescent cells increase reported for `COc1ccc(CN(C)Cc2nc(Cc3ccccc3Cl)no2)cc1OC`
A: 0.025

Q: Kindly indicate its recorded % fluorescent cells increase. Item: `Cc1cc(N)ncc1[N+](=O)[O-]`
A: 0.218

Q: For the compound `CCc1ccc(C(=O)NNc2ccc(S(N)(=O)=O)cc2)cc1` , report % fluorescent cells increase.
A: -0.004

Q: Give % fluorescent cells increase for the following compound: CC(Sc1nnc(Cc2ccccc2)o1)C(=O)Nc1ccccc1[N+](=O)[O-] (configuration not stated)
A: -0.011

Q: Item `CCCN1CCN(C(=O)C2CCN(c3nnc(C)c4c(C)n(-c5ccc(C)cc5)nc34)CC2)CC1` : provide % fluorescent cells increase
A: 0.895

Q: Supply recorded % fluorescent cells increase for Cc1ccc(OCCN2CCN(CC(O)Cn3c4ccccc4c4ccccc43)CC2)cc1 (configuration not stated) here.
A: 3.56

Q: Read off the recorded % fluorescent cells increase for `COc1cc(/C=C/C(=O)c2ccc3c(c2)OCCO3)cc(Br)c1OCC(=O)N(C)C`
A: 7.79

Q: Answer with the recorded % fluorescent cells increase of `CCN1CCN(c2cc(C)c3cc(NC(=O)c4cccs4)ccc3n2)CC1` only.
A: 0.257

Q: Quickly give me recorded % fluorescent cells increase for `COc1ccc(NC(=O)COc2ccc(C)c(C)c2)cc1S(=O)(=O)N1CCCCC1`
A: 0.026

Q: Kindly indicate its recorded % fluorescent cells increase. Item: `CN(C)CC(=O)N1CC2(C1)[C@@H](c1ccccc1)[C@H](CO)N2C(=O)C1CC1`
A: -0.147

Q: Give % fluorescent cells increase for `Cn1c(=O)c2[nH]c(-c3ccc(S(=O)(=O)O)cc3)nc2n(C)c1=O`
A: 0.085

Q: State its % fluorescent cells increase for this compound: CCOC(=O)c1ccc(NC(=O)C2CCC(CNc3c(N4CCOCC4)c(=O)c3=O)CC2)cc1 (configuration not stated)
A: 0.105

----------
# protocol-summary: compound fluorescence in GFP channel, mTEFS cells – imaging, mTEFS fibroblasts, cherry-pick, artefact control for X-chromosome reactivation project, dose response (AID 743396);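 on % fluorescent cells increase: raw share of Hoechst-counted cells scored GFP positive without control normalization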
# test-settings: mTEFS fibroblasts autofluorescence, GFP-channel imaging, 3 days; at 19.5 µM (top of the series); cells pretreated with 5-aza-dC
measured-parameter: % fluorescent cells increase (%)
Lab book: enter the figure in %, no units written.

Q: Tell me measured % fluorescent cells increase for `O=CNc1ccc2c(c1)Cc1cc([N+](=O)[O-])ccc1-2` please.
A: 0.119

Q: Using the record for `O=C(N/N=C/c1ccc2cccnc2c1)c1nc2ccccc2c(=O)[nH]1` , state its measured % fluorescent cells increase.
A: 0.022

Q: Return % fluorescent cells increase (reported value) for this compound: `Cc1ccc(Cn2ccsc2=NC(=O)CCl)cc1`
A: 0

----------
# protocol-summary: compound fluorescence in GFP channel, mTEFS cells – imaging, mTEFS fibroblasts, cherry-pick, artefact control for X-chromosome reactivation project, dose response (AID 743396);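 on % fluorescent cells increase: raw share of Hoechst-counted cells scored GFP positive without control normalization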
# test-settings: mTEFS fibroblasts autofluorescence, GFP-channel imaging, 3 days; at 19.5 µM (top of the series); cells pretreated with 5-aza-dC
Exercise: state measured % fluorescent cells increase for each of the compounds provided.
// return numeric value only (unit: %, not printed)

Q: Supply reported % fluorescent cells increase belonging to this compound: `NNC(=O)c1sc(-c2ccc(Cl)cc2)cc1N`
A: 0.125

Q: Give a short answer stating reported % fluorescent cells increase for `CN(C)C=NC(=O)c1cc(C(=O)c2ccc(Cl)cc2Cl)c[nH]1` .
A: 0.032

Q: Please supply the value of reported % fluorescent cells increase for the item `Cc1cc(NC(=O)c2c(-c3c(Cl)cccc3Cl)noc2C)n(C)n1`
A: 0.012

Q: Provide one value: measured % fluorescent cells increase of `Cc1nn2c(NCCCN(C)C)c3c(nc2c1-c1ccccc1)CCCC3`
A: -0.007

Q: Give a short answer stating reported % fluorescent cells increase for `Cc1ncsc1C(=O)Nc1cccc(C(F)(F)F)c1` .
A: 0.019

Q: Please supply the value of reported % fluorescent cells increase for the item [N-]=[N+]=CC(=O)C(O)(c1ccccc1)C(Cl)c1ccccc1 (stereo not drawn)
A: -0.007

Q: Give a short answer stating reported % fluorescent cells increase for `CC(C)c1cc(C(=O)N/N=C/c2cccnc2)cs1` .
A: -0.004

Q: For the compound `Cc1cc(/C=C2\SC(=S)N(Cc3ccco3)C2=O)c(C)n1-c1ccccc1` , give its reported % fluorescent cells increase.
A: 0.981

----------
# Tested on: mTEFS fibroblasts autofluorescence, GFP-channel imaging, 3 days
# protocol-summary: compound fluorescence in GFP channel, mTEFS cells – imaging, mTEFS fibroblasts, cherry-pick, artefact control for X-chromosome reactivation project, dose response (AID 743396)
# test-settings: cells pretreated with 5-aza-dC
Active and inactive are the calls of the source.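 Rule for the calls: active = fitted curve reaches a 40% rise in fluorescent cells at or below the top valid dose; inactive = opposite-direction effect, or the rest.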
Form entry, call: pick from y = active, n = inactive

Q: Can you look up the reported call for `CN(C)c1ccc(/C=C(/C#N)C(=O)NCc2ccccc2)o1` for me?
A: y

Q: Query: recorded result category for `C[C@H]1CN([C@@H](C)CO)S(=O)(=O)c2ccc(Br)cc2O[C@H]1CN(C)C(=O)c1cccnc1` in this test
A: n

Q: Please share the test call associated with `Cc1ccc2c(c1)c(/C=C/c1cc[n+](C)cc1)c(C)n2C` .
A: y
